Data credit: the supplement of paper PMC8728848

In this section we review reported glycan array binding signal (z-score) values for a set of binders.
Target: Neu5Ac(a2-3)Gal(b1-4)[Fuc(a1-3)]GlcNAc6S
Assay: glycan array binding signal (z-score within array); higher = stronger binding
Settings: glycan notation: IUPAC condensed, linker removed
This excerpt belongs to a sample that is enriched for the strongest signals.

BINDER	glycan array binding signal (z-score)
F17aG (Escherichia coli), Q99003 (protein) MTNFYKVFLAVFILVCCNISQAAVSFIGSTENDVGPSLGSYSRTHAMDNLPFVYDTRNKIGYQNANVWHISKGFCVGLDGKVDLPVVGSLDGQSIYGLTEEVGLLIWMGDTKYSRGTAMSGNSWENVFSGWCVGANTASTQGLSVRVTPVILKRNSSARYSVQKTSIGSIRMRPYNGSSAGSVQTTVNFSLNPFTLNDTVTSCRLLTPSAVNVSLAAISAGQLPSSGDEVVAGTTSLKLQCDAGVTVWATLTDATTPSNRSDILTLTGASTATGVGLRIYKNTDSTPLKFGPDSPVKGNENQWQLSTGTETSPSVRLYVKYVNTGEGINPGTVNGISTFTFSYQ	0.084
X56-1 (Clostridium perfringens), P26831 (protein) MGSSHHHHHHSSGLVPRGSHMASDPNRIIATYISNRQDAPTGNPDNIFDNNASTELVYKNPNRIDVGTYVGVKYSNPITLNNVEFLMGANSNPNDTMQKAKIQYTVDGREWIDLEEGVEYTMPGAIKVENLDLKVRGVRLIATEARENTWLGVRDINVNKKEDSNSGVEF	1.06
Epa6 (Candida glabrata), Q6DTM7_CANGB (protein) MGSSHHHHHHSSGLVPRGSHMKDDYSSSLSNNNLGWTDPTEFPLGCSPNVTTPKNGLSMELYSYDYLKSGSNPCWDAAYLDPNYPRTGYKSHRLLAKVENVAGNINFYYHAPMGCTSLFDTLPQAYNYRTPLTMTNFTMLLYGYFKPKVTGYHTFTISADDLLFVNFGAGNAFDCCKRESSADDFGNYQAYAVWGSQTAKDDLTVHLDAGLYYPIRIFFNNRDNDGALSLTLKTESDPNPVIDFSDYFYSFDDTKDGCPGLVSYDTS	-0.347
